- test.name: Decomposition of prodrugs in mouse plasma in vitro (HPLC of released propofol or other substituted phenol)
- Format: in vitro ADME
- condition.info: 37° C., 5 min
Each entry below carries its recorded Decomposition rates of prodrugs.

{"molecule": "CC(C)c1cccc(C(C)C)c1OC(=O)COC(=O)CN1CCCC1.Cl", "value.units": "%", "Decomposition rates of prodrugs": 100}
{"molecule": "CC(C)c1cccc(C(C)C)c1OC(=O)COC(=O)CN1CCC1.Cl", "value.units": "%", "Decomposition rates of prodrugs": 100}
{"molecule": "CC(C)c1cccc(C(C)C)c1OC(=O)COC(=O)[C@@H](C)N(C)C.Cl", "value.units": "%", "Decomposition rates of prodrugs": 100}
{"molecule": "CC(C)c1cccc(C(C)C)c1OC(=O)COC(=O)CN1CCOCC1 [Compound 27]", "value.units": "%", "Decomposition rates of prodrugs": 79}
{"molecule": "CC(C)c1cccc(C(C)C)c1OC(=O)COC(=O)CN1CCCCC1", "value.units": "%", "Decomposition rates of prodrugs": 100}
